Tested on: KRAS patient-derived spheroids with HUVEC/MSC, viability
Test: Anticancer human tumor 941728-121-R-J1-PDC patient-derived lung adenocarcinoma cell line growth inhibition [KRAS2]
Conditions: curve of first compound; second compound 1 µM

molecule: CC(C)NCC(C(=O)N1CCN(c2ncnc3c2C(C)CC3O)CC1)c1ccc(Cl)cc1 (stereo not drawn) + C=CC(=O)N1CCN(c2nc(OCC3CCCN3C)nc3c2CCN(c2cccc4cccc(C)c24)C3)CC1CC#N
IC50: < 31.6 nM
//
molecule: COC(=O)c1ccc2c(C(=Nc3ccc(N(C)C(=O)CN4CCN(C)CC4)cc3)c3ccccc3)c(O)[nH]c2c1 + C=CC(=O)N1CCN(c2nc(OCC3CCCN3C)nc3c2CCN(c2cccc4cccc(C)c24)C3)CC1CC#N
IC50: < 31.6 nM
//
molecule: CC(C)n1nc(-c2ccc3oc(N)nc3c2)c2c(N)ncnc21 + CNCc1ccccc1-c1csc(C(C)Nc2nc(C)nc3cc(OC)c(OC)cc23)c1
IC50: < 0.316 nM

====

Entries and their viability, T/C values follow.
System: KRAS patient-derived spheroids with HUVEC/MSC, viability
Assay: Anticancer human tumor 941728-121-R-J1-PDC cell line growth inhibition [KRAS2];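 also: spheroids exposed to agents for seven days before readout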
Settings: second compound 0.1 µM; first compound 0.1 µM; stronger effect = lower value

molecule: Cn1nccc1Nc1nccc(-c2cc3c(s2)C(C)(C)N(CCN2CCOCC2)C3=O)n1 + C=CC(=O)N1CCN(c2nc(=O)n(-c3c(C)ccnc3C(C)C)c3nc(-c4c(O)cccc4F)c(F)cc23)C(C)C1
viability, T/C [%]: 23.4

molecule: CCNC(=O)CC1N=C(c2ccc(Cl)cc2)c2cc(OC)ccc2-n2c(C)nnc21 (stereo unspecified) + CC1OCC2(CCN(c3cnc(Sc4ccnc(N)c4Cl)c(N)n3)CC2)C1N
viability, T/C [%]: 44

molecule: COc1cc2nccc(Oc3ccc(NC(=O)C4(C(=O)Nc5ccc(F)cc5)CC4)cc3)c2cc1OC + C=CC(=O)N1CCN(c2nc(OCC3CCCN3C)nc3c2CCN(c2cccc4cccc(C)c24)C3)CC1CC#N
viability, T/C [%]: 15.8

molecule: COc1cc(Nc2ncc3c(n2)-c2ccc(Cl)cc2C(c2c(F)cccc2OC)=NC3)ccc1C(=O)O + C=CC(=O)N1CCN(c2nc(=O)n(-c3c(C)ccnc3C(C)C)c3nc(-c4c(O)cccc4F)c(F)cc23)C(C)C1
viability, T/C [%]: 17.2

molecule: CN(C)C/C=C/C(=O)Nc1cc2c(Nc3ccc(F)c(Cl)c3)ncnc2cc1O[C@H]1CCOC1 + CNCc1ccccc1-c1csc(C(C)Nc2nc(C)nc3cc(OC)c(OC)cc23)c1
viability, T/C [%]: 35.6

molecule: CC(C)n1nc(-c2ccc3oc(N)nc3c2)c2c(N)ncnc21 + COc1cc2nc(C)nc(NC(C)c3cc(N)cc(C(F)(F)F)c3)c2cc1OC1CCOC1
viability, T/C [%]: 28.3

molecule: CC1COCCN1c1cc(-c2ccnn2C)c2ccnc(-c3ccn[nH]3)c2n1 (stereo unspecified) + COc1cc2nc(C)nc(NC(C)c3cc(N)cc(C(F)(F)F)c3)c2cc1OC1CCOC1
viability, T/C [%]: 39.9

molecule: CN(C)C/C=C/C(=O)Nc1cc2c(Nc3ccc(F)c(Cl)c3)ncnc2cc1O[C@H]1CCOC1 + COc1cc2nc(C)nc(NC(C)c3cc(N)cc(C(F)(F)F)c3)c2cc1OC1CCOC1
viability, T/C [%]: 49.3

molecule: CC1(C)CCC(CN2CCN(c3ccc(C(=O)NS(=O)(=O)c4ccc(NCC5CCOCC5)c([N+](=O)[O-])c4)c(Oc4cnc5[nH]ccc5c4)c3)CC2)=C(c2ccc(Cl)cc2)C1 + C=CC(=O)N1CCN(c2nc(=O)n(-c3c(C)ccnc3C(C)C)c3nc(-c4c(O)cccc4F)c(F)cc23)C(C)C1
viability, T/C [%]: 17.6

molecule: COc1cc2nccc(Oc3ccc(NC(=O)C4(C(=O)Nc5ccc(F)cc5)CC4)cc3)c2cc1OC + CNCc1ccccc1-c1csc(C(C)Nc2nc(C)nc3cc(OC)c(OC)cc23)c1
viability, T/C [%]: 46.5

molecule: CC(C)NCC(C(=O)N1CCN(c2ncnc3c2C(C)CC3O)CC1)c1ccc(Cl)cc1 (stereo unspecified) + CC1OCC2(CCN(c3cnc(Sc4ccnc(N)c4Cl)c(N)n3)CC2)C1N
viability, T/C [%]: 40.1

====

Tested on: KRAS patient-derived spheroids with HUVEC/MSC, viability
Assay: Anticancer human tumor 941728-121-R-J1-PDC cell line growth inhibition [KRAS2];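 also: spheroids exposed to agents for seven days before readout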
Details: second compound 0.0316 µM; first compound 0.001 µM; stronger effect = lower value

molecule: CC(C)n1nc(-c2ccc3oc(N)nc3c2)c2c(N)ncnc21 + C=CC(=O)N1CCN(c2nc(OCC3CCCN3C)nc3c2CCN(c2cccc4cccc(C)c24)C3)CC1CC#N
viability, T/C [%]: 32.9

molecule: CC(=O)Nc1cccc(-n2c(=O)n(C3CC3)c(=O)c3c(Nc4ccc(I)cc4F)n(C)c(=O)c(C)c32)c1 + C=CC(=O)N1CCN(c2nc(OCC3CCCN3C)nc3c2CCN(c2cccc4cccc(C)c24)C3)CC1CC#N
viability, T/C [%]: 25.9

molecule: CN(C)C/C=C/C(=O)Nc1cc2c(Nc3ccc(F)c(Cl)c3)ncnc2cc1O[C@H]1CCOC1 + C=CC(=O)N1CCN(c2nc(OCC3CCCN3C)nc3c2CCN(c2cccc4cccc(C)c24)C3)CC1CC#N
viability, T/C [%]: 22.4

molecule: Cn1ncnc1[C@H]1c2n[nH]c(=O)c3cc(F)cc(c23)N[C@@H]1c1ccc(F)cc1 + C=CC(=O)N1CCN(c2nc(OCC3CCCN3C)nc3c2CCN(c2cccc4cccc(C)c24)C3)CC1CC#N
viability, T/C [%]: 23.2

====

Test system: KRAS patient-derived spheroids with HUVEC/MSC, viability
Experiment: Anticancer human tumor 941728-121-R-J1-PDC cell line growth inhibition [KRAS2];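 also: spheroids exposed to agents for seven days before readout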
Conditions: second compound 3.16 µM; first compound 1 µM; stronger effect = lower value
observedProperty: viability, T/C (%)

compound: CC(C)NCC(C(=O)N1CCN(c2ncnc3c2C(C)CC3O)CC1)c1ccc(Cl)cc1 (stereo not given) + COc1cc2nc(C)nc(NC(C)c3cc(N)cc(C(F)(F)F)c3)c2cc1OC1CCOC1
measured: 13
//
compound: CCNC(=O)CC1N=C(c2ccc(Cl)cc2)c2cc(OC)ccc2-n2c(C)nnc21 (stereo not given) + CNCc1ccccc1-c1csc(C(C)Nc2nc(C)nc3cc(OC)c(OC)cc23)c1
measured: 1.53
//
compound: CC(=O)OC12COC1CC(O)C1(C)C(=O)C(O)C3=C(C)C(OC(=O)C(O)C(NC(=O)OC(C)(C)C)c4ccccc4)CC(O)(C(OC(=O)c4ccccc4)C21)C3(C)C (stereo not given) + C=CC(=O)N1CCN(c2nc(=O)n(-c3c(C)ccnc3C(C)C)c3nc(-c4c(O)cccc4F)c(F)cc23)C(C)C1
measured: 23.8
//
compound: CC1OCC2(CCN(c3cnc(Sc4ccnc(N)c4Cl)c(N)n3)CC2)C1N (stereo not given) + C=CC(=O)N1CCN(c2nc(OCC3CCCN3C)nc3c2CCN(c2cccc4cccc(C)c24)C3)CC1CC#N
measured: 4.43
//
compound: COc1cc2nccc(Oc3ccc(NC(=O)C4(C(=O)Nc5ccc(F)cc5)CC4)cc3)c2cc1OC + C=CC(=O)N1CCN(c2nc(OCC3CCCN3C)nc3c2CCN(c2cccc4cccc(C)c24)C3)CC1CC#N
measured: 0.09
//
compound: CC1(C)CCC(CN2CCN(c3ccc(C(=O)NS(=O)(=O)c4ccc(NCC5CCOCC5)c([N+](=O)[O-])c4)c(Oc4cnc5[nH]ccc5c4)c3)CC2)=C(c2ccc(Cl)cc2)C1 + C=CC(=O)N1CCN(c2nc(OCC3CCCN3C)nc3c2CCN(c2cccc4cccc(C)c24)C3)CC1CC#N
measured: 0.09
//
compound: CCN1CCN(Cc2ccc(Nc3ncc(F)c(-c4cc(F)c5nc(C)n(C(C)C)c5c4)n3)nc2)CC1 + C=CC(=O)N1CCN(c2nc(=O)n(-c3c(C)ccnc3C(C)C)c3nc(-c4c(O)cccc4F)c(F)cc23)C(C)C1
measured: 19.2
//
compound: CC1COCCN1c1cc(-c2ccnn2C)c2ccnc(-c3ccn[nH]3)c2n1 (stereo not given) + C=CC(=O)N1CCN(c2nc(=O)n(-c3c(C)ccnc3C(C)C)c3nc(-c4c(O)cccc4F)c(F)cc23)C(C)C1
measured: 20.1
//
compound: O=C(c1cc(Cc2n[nH]c(=O)c3ccccc23)ccc1F)N1CCN(C(=O)C2CC2)CC1 + COc1cc2nc(C)nc(NC(C)c3cc(N)cc(C(F)(F)F)c3)c2cc1OC1CCOC1
measured: 59.8
//
compound: COC(=O)c1ccc2c(C(=Nc3ccc(N(C)C(=O)CN4CCN(C)CC4)cc3)c3ccccc3)c(O)[nH]c2c1 + COc1cc2nc(C)nc(NC(C)c3cc(N)cc(C(F)(F)F)c3)c2cc1OC1CCOC1
measured: 42.6

Data credit: PubChem BioAssay AID1963862
